- Test system: K562
- ASSAY COMMENT: cells
- RUN PARAMETERS: Homo sapiens
- Description: Growth inhibition of human K562 cells after 48 hrs by [3H]thymidine uptake assay
pIC50: −log10 of the molar value.
ENDPOINT NAME: pIC50

Cc1nc(Nc2ncc(C(=O)Nc3c(C)cccc3Cl)s2)cc(N2CCN(CCF)CC2)n1    8.96
Cc1nc(Nc2ncc(C(=O)Nc3c(C)cccc3Cl)s2)cc(N2CCN(CCO)CC2)n1 [DASATINIB]    9.00
